- assay_target: d-enCas12a (Acidaminococcus sp., UniProt U2UMQ6 1-1307, E174R;S542R;K548R;D908A;E993A;D1235A)
- assay_remarks: Spec-seq (native PAGE EMSA with sequencing of bound and unbound); 25 mM Tris-HCl pH 7.4, 150 mM KCl, 5 mM MgCl2, 10% glycerol, 1 mM DTT, 40 ng/uL salmon sperm DNA; 400 nM Cas12a, 480 nM crRNA, 50 nM library, 37 C 1 h; native PAGE at room temperature; high values mean tight binding;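 also: relative affinity from the bound to unbound sequence frequency ratio in Spec-seq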
- measurement_parameters: protein: recombinant
Provide the recorded binding signal for the entries that follow.
Please give the number followed by its unit.

The binder listed as GACG (dsDNA) DNA 1: GCTATCTAGTGCTCAGTACGCACTGGACGAGGAAACTTCTGGCAGGACCAGGTCATGAGATCGGAAGAGCACACGTCTGAACTCCAGTCA DNA 2: TGACTGGAGTTCAGACGTGTGCTCTTCCGATCTCATGACCTGGTCCTGCCAGAAGTTTCCTCGTCCAGTGCGTACTGAGCACTAGATAGC RNA: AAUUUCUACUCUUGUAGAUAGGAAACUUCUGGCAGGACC has a reported binding signal of -5.57 lnKA

// field: binding signal; key: AACC (dsDNA) DNA 1: GCTATCTAGTGCTCAGTACGCACTGAACCAGGAAACTTCTGGCAGGACCAGGTCATGAGATCGGAAGAGCACACGTCTGAACTCCAGTCA DNA 2: TGACTGGAGTTCAGACGTGTGCTCTTCCGATCTCATGACCTGGTCCTGCCAGAAGTTTCCTGGTTCAGTGCGTACTGAGCACTAGATAGC RNA: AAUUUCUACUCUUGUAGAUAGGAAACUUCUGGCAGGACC ; value = -2.33 lnKA

Recorded result, TGGA (dsDNA) DNA 1: GCTATCTAGTGCTCAGTACGCACTGTGGAAGGAAACTTCTGGCAGGACCAGGTCATGAGATCGGAAGAGCACACGTCTGAACTCCAGTCA DNA 2: TGACTGGAGTTCAGACGTGTGCTCTTCCGATCTCATGACCTGGTCCTGCCAGAAGTTTCCTTCCACAGTGCGTACTGAGCACTAGATAGC RNA: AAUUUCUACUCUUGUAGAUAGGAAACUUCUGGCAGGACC , binding signal: -5.44 lnKA
